Each record here notes measured inhibition index.
biological target: UniProt P05230; test: FGF-1 thermal aggregation (turbidity at 360 nm); type: biochemical; details: FGF-1 50 μg/mL, 50° C.; compound 10,000×; standard deviation in parenthesis
Sequence (P05230 whole entry): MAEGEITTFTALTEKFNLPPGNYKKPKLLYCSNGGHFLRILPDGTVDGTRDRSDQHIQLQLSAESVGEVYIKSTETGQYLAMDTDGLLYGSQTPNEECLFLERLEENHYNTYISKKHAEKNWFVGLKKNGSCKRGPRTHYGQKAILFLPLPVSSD
measure: inhibition index

INSERT INTO assay_data (compound, observed_value) VALUES
  ('O=C(O)CCCCCC(=O)O [pimelate, pimelic acid]', '12.1 (8.8)'),
  ('NCCN', '3.3 (1.3)'),
  ('NCCCCCN', '46.5 (19.8)'),
  ('N.O=CO [ammonium formate]', '1.3 (0.3)'),
  ('NCCCCCCC(=O)O [7-aminoheptanoate, 7-aminoheptanoic acid]', '1.3 (0.1)'),
  ('O=C([O-])CC(=O)[O-].[Na+].[Na+] [malonate, sodium malonate]', '36.6 (29.0)'),
  ('O=C(O)CCC(=O)O [succinate, succinic acid]', '9.2 (1.9)'),
  ('NCC(=O)O', '3.0 (1.7)'),
  ('O=C(O)CCCCCCC(=O)O [suberate, suberic acid]', '7.1 (5.4)'),
  ('Cl.N=C(N)N [guanidine HCl, guanidine hydrochloride]', '2.8 (0.9)'),
  ('O=C(O)C(=O)O [oxalate, oxalic acid]', '605.5 (89.1)'),
  ('NCCCCC(=O)O [5-aminovalerate, 5-aminovaleric acid]', '2.2 (1.4)'),
  ('O=C(O)CCCCC(=O)O [adipate, adipic acid]', '5.0 (3.3)');
